system: Staphylococcus aureus; assay: Antibacterial activity against Staphylococcus aureus ATCC 25923 assessed as diameter of growth inhibition zone at 1 mg/ml after 24 hrs by disk diffusion assay; type: functional; details: ATCC 25923, 24 h, read-out: DIZ
assay-readout: zone of inhibition at 1000 µg/mL (mm)
Numbers only here, please. The scale is mm.

Guide cases for zone of inhibition at 1000 µg/mL, answers given:
Data request: Answer with the recorded zone of inhibition at 1000 µg/mL of CCN(CC)[c+]1sc2c(s1)C(c1ccc(Cl)cc1)Oc1ccccc1-2.F[B-](F)(F)F (stereo not given) only.
Data returned: 16.3

Data request: Answer with the recorded zone of inhibition at 1000 µg/mL of CCN(CC)[c+]1sc2c(s1)C(c1ccc(Cl)cc1)Oc1c(I)cc(I)cc1-2.[O-][Cl+3]([O-])([O-])[O-] (stereo not given) only.
Data returned: 16.7

Data request: Answer with the recorded zone of inhibition at 1000 µg/mL of CCN(CC)[c+]1sc2c(s1)C(c1ccc(Cl)cc1)Oc1ccc(Br)cc1-2.[O-][Cl+3]([O-])([O-])[O-] (stereo not given) only.
Data returned: 20.3

Data request: Answer with the recorded zone of inhibition at 1000 µg/mL of CCN(CC)[c+]1sc2c(s1)C(c1ccc(OC)cc1)Oc1ccc(Br)cc1-2.[O-][Cl+3]([O-])([O-])[O-] (stereo not given) only.
Data returned: 13.7

We now examine a further compound.
Data request: Answer with the recorded zone of inhibition at 1000 µg/mL of CCN(CC)[c+]1sc2c(s1)C(c1ccc(Cl)cc1)Oc1c(Br)cc(Br)cc1-2.F[B-](F)(F)F (stereo not given) only.
Data returned: 21.3

----------
system: Staphylococcus aureus; test: Antibacterial activity against Staphylococcus aureus ATCC 25923 assessed as growth inhibition after 18 hrs by colorimetric microdilution technique; assay type: functional; details: ATCC 25923, 18 h
Entries and their MIC
Numbers only here, please. The scale is µg/mL.

Guide cases for MIC, answers given:
Data request: Answer with the recorded MIC of CCN(CC)[c+]1sc2c(s1)C(c1ccc(Cl)cc1)Oc1ccccc1-2.F[B-](F)(F)F (stereo not drawn) only.
Data returned: 1.95

Data request: Answer with the recorded MIC of CCN(CC)[c+]1sc2c(s1)C(c1ccc(Cl)cc1)Oc1c(I)cc(I)cc1-2.F[B-](F)(F)F (stereo not drawn) only.
Data returned: 0.97

Data request: Answer with the recorded MIC of CCN(CC)[c+]1sc2c(s1)C(c1ccc(Cl)cc1)Oc1ccc(Br)cc1-2.[O-][Cl+3]([O-])([O-])[O-] (stereo not drawn) only.
Data returned: 0.48

Data request: Answer with the recorded MIC of CCN(CC)[c+]1sc2c(s1)C(c1ccc(OC)cc1)Oc1ccc(Br)cc1-2.F[B-](F)(F)F (stereo not drawn) only.
Data returned: 1.95

Data request: Answer with the recorded MIC of CCN(CC)[c+]1sc2c(s1)C(c1ccc(Cl)cc1)Oc1ccc(Br)cc1-2.F[B-](F)(F)F (stereo not drawn) only.
Data returned: 0.48

---
Data request: Answer with the recorded MIC of CCN(CC)[c+]1sc2c(s1)C(c1ccc(Cl)cc1)Oc1c(I)cc(I)cc1-2.[O-][Cl+3]([O-])([O-])[O-] (stereo not drawn) only.
Data returned: 1.95

Data request: Answer with the recorded MIC of CCN(CC)[c+]1sc2c(s1)C(c1ccc(Cl)cc1)Oc1c(Br)cc(Br)cc1-2.F[B-](F)(F)F (stereo not drawn) only.
Data returned: 1.95

Data request: Answer with the recorded MIC of CCN(CC)[c+]1sc2c(s1)C(c1ccc(OC)cc1)Oc1ccc(Br)cc1-2.[O-][Cl+3]([O-])([O-])[O-] (stereo not drawn) only.
Data returned: 3.9
